Molecular target: hCA II (Homo sapiens, UniProt P00918)
Construct: made in house; host or cells: Escherichia coli BL21 (DE3)
Assay: CA esterase activity assay, isozyme hCA II
Format: biochemical
Details: Table 3; human (cloned) isozymes, esterase assay method; read-out: KI hCA II
recorded.endpoint: log10 of Ki (log10 of the value in nM)

chemical.structure: CCCCc1cc(-c2ccccc2)cc(CCCC)[n+]1-c1ccc(S(=O)(=O)Nc2nnc(S(N)(=O)=O)s2)cc1
log10 of Ki: 0.66
//
chemical.structure: CC(C)c1cc(-c2ccccc2)cc(C(C)C)[n+]1-c1ccc(S(=O)(=O)Nc2nnc(S(N)(=O)=O)s2)cc1
log10 of Ki: 0.21
//
chemical.structure: Cc1cc(-c2ccccc2)[n+](-c2ccc(S(=O)(=O)Nc3nnc(S(N)(=O)=O)s3)cc2)c(-c2ccccc2)c1
log10 of Ki: 0.68
//
chemical.structure: CCCc1cc(-c2ccccc2)cc(CCC)[n+]1-c1ccc(S(=O)(=O)Nc2nnc(S(N)(=O)=O)s2)cc1
log10 of Ki: 0.54
//
chemical.structure: Cc1cc(C)[n+](-c2ccc(S(=O)(=O)Nc3nnc(S(N)(=O)=O)s3)cc2)c(C)c1C
log10 of Ki: -0.52
//
chemical.structure: CC(C)(C)c1cc(-c2ccccc2)cc(-c2ccccc2)[n+]1-c1ccc(S(=O)(=O)Nc2nnc(S(N)(=O)=O)s2)cc1
log10 of Ki: 0.61
//
chemical.structure: Cc1cc(-c2ccccc2)cc(C)[n+]1-c1ccc(S(=O)(=O)Nc2nnc(S(N)(=O)=O)s2)cc1
log10 of Ki: -0.70
//
chemical.structure: Cc1cc(C(C)(C)C)[n+](-c2ccc(S(=O)(=O)Nc3nnc(S(N)(=O)=O)s3)cc2)c(C(C)(C)C)c1
log10 of Ki: 0.50
//
chemical.structure: CC(C)c1cc(-c2ccccc2)cc(-c2ccccc2)[n+]1-c1ccc(S(=O)(=O)Nc2nnc(S(N)(=O)=O)s2)cc1
log10 of Ki: 0.57
//
chemical.structure: Cc1cc(C)[n+](-c2ccc(S(=O)(=O)Nc3nnc(S(N)(=O)=O)s3)cc2)c(C(C)C)c1
log10 of Ki: -0.41
//
chemical.structure: Cc1cc(C(C)C)[n+](-c2ccc(S(=O)(=O)Nc3nnc(S(N)(=O)=O)s3)cc2)c(C(C)C)c1
log10 of Ki: 0.19
//
chemical.structure: CCc1cc(-c2ccccc2)cc(CC)[n+]1-c1ccc(S(=O)(=O)Nc2nnc(S(N)(=O)=O)s2)cc1
log10 of Ki: -0.68
//
chemical.structure: NS(=O)(=O)c1nnc(NS(=O)(=O)c2ccc(-[n+]3c(-c4ccccc4)cccc3-c3ccccc3)cc2)s1
log10 of Ki: 0.69
//
chemical.structure: CCCc1cc(-c2ccccc2)cc(-c2ccccc2)[n+]1-c1ccc(S(=O)(=O)Nc2nnc(S(N)(=O)=O)s2)cc1
log10 of Ki: 0.59

---

Target: bCA IV (Bos taurus)
Construct: CA IV was isolated from bovine lung microsomes as described by Maren et al; from tissue; host or cells: bovine lung microsomes
Sequence (Q95323 19-284): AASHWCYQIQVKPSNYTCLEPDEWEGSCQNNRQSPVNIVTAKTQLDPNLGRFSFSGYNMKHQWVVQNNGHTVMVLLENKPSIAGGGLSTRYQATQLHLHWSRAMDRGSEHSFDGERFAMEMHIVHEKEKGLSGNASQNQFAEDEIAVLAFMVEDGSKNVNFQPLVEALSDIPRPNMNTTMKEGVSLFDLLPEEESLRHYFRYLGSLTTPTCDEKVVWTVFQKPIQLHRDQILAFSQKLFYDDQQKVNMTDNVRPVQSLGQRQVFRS
Assay: CA esterase activity assay, isozyme bCA IV
Assay type: biochemical, bovine
Conditions: read-out: KI bCA IV
pKi: −log10 of the molar value.
Reported values of pKi for individual entries

molecule: CC(C)(C)c1cc(-c2ccccc2)cc(-c2ccccc2)[n+]1Cc1ccc(S(N)(=O)=O)cc1
pKi: 5.97
--
molecule: CCCc1cc(-c2ccccc2)cc(-c2ccccc2)[n+]1CCc1ccc(S(N)(=O)=O)cc1
pKi: 5.98
--
molecule: Nc1ccc(S(N)(=O)=O)cc1 [Compound 3, sulfanilamide]
pKi: 5.52

---

Molecular target: bCA IV (Bos taurus, UniProt Q95323)
Construct: CA IV was isolated from bovine lung microsomes as described by Maren et al; from tissue; host or cells: bovine lung microsomes
Assay: CA esterase activity assay, isozyme bCA IV
Type: biochemical, bovine
Details: Table 1; isolated from bovine lung microsomes, esterase assay method; read-out: KI bCA IV
# criterion met = Ki below 200 nM (exclusive); criterion not met = Ki at/above 200 nM

compound: NNc1ccc(S(N)(=O)=O)cc1 [Compound 4, 4-hydrazino-benzenesulfonamide]
assigned.class: criterion not met

compound: Nc1cc(C(F)(F)F)c(S(N)(=O)=O)cc1S(N)(=O)=O [Compound 11]
assigned.class: criterion met

compound: Nc1ccc(S(N)(=O)=O)cc1F [Compound 7]
assigned.class: criterion met

compound: Nc1ccc(S(=O)(=O)Nc2ccccc2S(N)(=O)=O)cc1 [Compound 17]
assigned.class: criterion met

compound: Nc1ccc(S(=O)(=O)NCc2ccc(S(N)(=O)=O)cc2)cc1 [Compound 18]
assigned.class: criterion met

compound: NS(=O)(=O)c1ccc(C(=O)O)cc1 [Compound 26]
assigned.class: criterion met

---

Target: hCA IX (Homo sapiens, UniProt Q16790)
Test: CA CO2 hydrase activity assay, tumor-associated isozyme hCA IX
Conditions: read-out: KI hCA IX; Table 2; catalytic domain of the human, cloned isozyme
pKi: −log10 of the molar value.
Parameter threshold = 7. Response is yes when pKi meets or exceeds it, else no.

chemical.structure: CCc1cc(-c2ccccc2)cc(-c2ccccc2)[n+]1-c1ccc(S(N)(=O)=O)cc1
assigned.class: no

chemical.structure: CCCc1cc(-c2ccccc2)cc(CCC)[n+]1CCc1ccc(S(N)(=O)=O)cc1
assigned.class: no

chemical.structure: CCCc1cc(-c2ccccc2)cc(CCC)[n+]1Cc1ccc(S(N)(=O)=O)cc1
assigned.class: no

chemical.structure: Cc1cc(C)[n+](CCc2ccc(S(N)(=O)=O)cc2)c(C)c1C
assigned.class: yes

chemical.structure: Cc1cc(-c2ccccc2)cc(-c2ccccc2)[n+]1-c1ccc(S(N)(=O)=O)cc1
assigned.class: no

chemical.structure: Cc1cc(C(C)C)[n+](CCc2ccc(S(N)(=O)=O)cc2)c(C(C)C)c1
assigned.class: yes

chemical.structure: Cc1cc(C)[n+](Cc2ccc(S(N)(=O)=O)cc2)c(C)c1
assigned.class: yes

---

Tested on: human red cells
Settings: human, 30 min, 2 mM, pH 7.4

molecule: Cc1cc(C)[n+](-c2ccc(S(=O)(=O)Nc3nnc(S(N)(=O)=O)s3)cc2)c(C)c1C [Compound 89]
output.unit: µM
[sulfonamide] in red blood cells, ES: 0.2

molecule: Cc1cc(C)[n+](-c2ccc(S(=O)(=O)Nc3nnc(S(N)(=O)=O)s3)cc2)c(C)c1 [Compound 71]
output.unit: µM
[sulfonamide] in red blood cells, ES: 0.5

molecule: Nc1ccc(S(=O)(=O)Nc2nnc(S(N)(=O)=O)s2)cc1 [Compound 15]
output.unit: µM
[sulfonamide] in red blood cells, ES: 127

molecule: CCc1cc(-c2ccccc2)cc(CC)[n+]1-c1ccc(S(=O)(=O)Nc2nnc(S(N)(=O)=O)s2)cc1 [Compound 76]
output.unit: µM
[sulfonamide] in red blood cells, ES: 1.1

---

Molecular target: hCA IX (Homo sapiens, UniProt Q16790)
Experiment: CA CO2 hydrase activity assay, tumor-associated isozyme hCA IX
Conditions: KI against CA IX
pKi: −log10 of the molar value.
recorded.endpoint: pKi

chemical.structure: Nc1ccc(S(=O)(=O)Nc2nnc(S(N)(=O)=O)s2)cc1
result: 7.30 to 7.85

---

Readings of Ki for the listed molecules
Biological target: UniProtKB Q16790
Assay: CA CO2 hydrase activity assay, tumor-associated isozyme hCA IX

chemical.structure: CCCc1cc(-c2ccccc2)cc(CCC)[n+]1CCc1ccc(S(N)(=O)=O)cc1
Ki: 160 to 450 nM

chemical.structure: NS(=O)(=O)c1ccc(C[n+]2c(-c3ccccc3)cc(-c3ccccc3)cc2-c2ccccc2)cc1
Ki: 64 to 135 nM

chemical.structure: NS(=O)(=O)c1ccc(CC[n+]2c(-c3ccccc3)cc(-c3ccccc3)cc2-c2ccccc2)cc1
Ki: 64 to 135 nM

chemical.structure: Cc1cc(C)[n+](-c2ccc(S(N)(=O)=O)cc2)c(C)c1C
Ki: 64 to 135 nM

chemical.structure: NS(=O)(=O)c1nnc(NS(=O)(=O)c2ccc(-[n+]3c(-c4ccccc4)cc(-c4ccccc4)cc3-c3ccccc3)cc2)s1
Ki: 12 to 35 nM

chemical.structure: Cc1cc(-c2ccccc2)cc(-c2ccccc2)[n+]1CCc1ccc(S(N)(=O)=O)cc1
Ki: 6 to 54 nM

chemical.structure: Cc1cc(C)[n+](-c2ccc(S(=O)(=O)Nc3nnc(S(N)(=O)=O)s3)cc2)c(C)c1C
Ki: 3 to 9 nM

chemical.structure: NS(=O)(=O)c1nnc(NS(=O)(=O)c2ccc(-[n+]3c(-c4ccccc4)cccc3-c3ccccc3)cc2)s1
Ki: 12 to 35 nM

chemical.structure: Cc1cc(-c2ccccc2)cc(-c2ccccc2)[n+]1-c1ccc(S(=O)(=O)Nc2nnc(S(N)(=O)=O)s2)cc1
Ki: 12 to 35 nM

chemical.structure: Cc1cc(C)[n+](-c2ccc(S(N)(=O)=O)cc2)c(C)c1
Ki: 160 to 450 nM

chemical.structure: Cc1cc(C)[n+](-c2ccc(S(=O)(=O)Nc3nnc(S(N)(=O)=O)s3)cc2)c(C(C)C)c1
Ki: 3 to 9 nM

chemical.structure: NS(=O)(=O)c1ccc(C[n+]2c(-c3ccccc3)cccc2-c2ccccc2)cc1
Ki: 64 to 135 nM

chemical.structure: CCCc1cc(-c2ccccc2)cc(CCC)[n+]1Cc1ccc(S(N)(=O)=O)cc1
Ki: 160 to 450 nM

chemical.structure: CC(C)(C)c1cc(-c2ccccc2)cc(-c2ccccc2)[n+]1-c1ccc(S(=O)(=O)Nc2nnc(S(N)(=O)=O)s2)cc1
Ki: 40 to 43 nM

chemical.structure: CC(C)c1cc(-c2ccccc2)cc(-c2ccccc2)[n+]1-c1ccc(S(=O)(=O)Nc2nnc(S(N)(=O)=O)s2)cc1
Ki: 12 to 35 nM
